Reference for the values: PubChem BioAssay (NCI)

System: A498 renal
assayProtocol: NCI-60 one-dose screen, 48 h
conditionContext: 10 µM unless noted
Method: Growth inhibition of the A498 human tumor cell line is measured as a screen for anti-cancer activity. Cells are grown in 96 well plates and exposed to the test compound for 48 hours. Compounds are tested at a single concentration, which is 10^-5 M for most compounds. The reported endpoint is percent growth (GI% or GIPRCNT), where numbers from 0 - 100% represent growth inhibition, and numbers from -100% - 0 represent cell death. For example, a value of 40 represents 60% growth inhibition. […]
About 83,000 compounds went through this panel and 20% of them were active in at least one assay; those are over-represented in the sample as a whole. Active and inactive are the calls of the source. Rule for the calls: active = growth percent below 10; inactive = the rest.
Please state which outcome applies, choosing from active, inactive

Reference set (3 entries):
Incoming: Hi team, can someone confirm the assay call for NCCOCCOc1ccccc1 ?
Outgoing: inactive

Incoming: Hi team, can someone confirm the assay call for CN1CCN(c2ccc(Nc3ncc(C(N)=O)c(NCCCNC(=O)C4CCC4)n3)cc2)CC1 ?
Outgoing: inactive

Incoming: Hi team, can someone confirm the assay call for COC(=O)/C=C1/SC(=Nc2ccc([N+](=O)[O-])cc2)N(CCc2c[nH]c3ccccc23)C1=O ?
Outgoing: inactive

---
Incoming: Hi team, can someone confirm the assay call for COc1cc(OC)cc(-c2ccc(-c3ccc(C(=N)N)cn3)s2)c1 ?
Outgoing: inactive

Incoming: Hi team, can someone confirm the assay call for COc1ccccc1/C=C1\COc2ccc(O)cc2C1=O ?
Outgoing: inactive

Incoming: Hi team, can someone confirm the assay call for Cc1[nH]c(C(=O)Nc2nc3ccc(NC(=O)CCN)cc3s2)c(Cl)c1Cl ?
Outgoing: inactive

Incoming: Hi team, can someone confirm the assay call for Cc1c(C(=O)OCCCCOC(=O)c2c(C)n(C)c3scc[n+]23)[n+]2ccsc2n1C ?
Outgoing: inactive

---

System: OVCAR-4 ovarian
assayProtocol: NCI-60 one-dose screen, 48 h
conditionContext: 10 µM unless noted
Compounds without any hit were thinned out: in the full panel of roughly 83,000, 20% have a hit. The source made the active and inactive calls. How the source made its calls: active means growth percent below 10; inactive means the rest.
Please state which outcome applies, choosing from true (1) = active, false (0) = inactive

Incoming: Hi team, can someone confirm the assay call for COc1ccc(C/C(C)=C(\c2ccc(O)cc2)c2ccc(OCCCN(C)C)cc2)cc1 ?
Outgoing: false (0)

Next molecule, please.
Incoming: Hi team, can someone confirm the assay call for Cc1ccc(-c2nc(C#N)c(S(=O)(=O)N(C)C)o2)cc1 ?
Outgoing: false (0)

---

Tested on: SF-539 CNS
assayProtocol: NCI-60 one-dose screen, 48 h (100 = growth as untreated, 0 = no growth, -100 = all killed)
conditionContext: 10 µM unless noted
Compounds without any hit were thinned out: in the full panel of roughly 83,000, 20% have a hit.
quantityMeasured: growth (%)
Answers are plain numbers, in %.

Incoming: Using SF-539 CNS as the test system, report measured growth of COc1ccc(C(=O)N/N=C/c2ccc(O)cc2O)cc1Nc1ccnc(C(F)(F)F)c1 .
Outgoing: 10.3

Incoming: Using SF-539 CNS as the test system, report measured growth of Cc1c(C(=O)OCCCCOC(=O)c2c(C)n(C)c3scc[n+]23)[n+]2ccsc2n1C .
Outgoing: 105

Required: growth, one value per compound below.
1. CN1CCN(CCNC(=O)c2cccc(CN3c4cccc5c4C(=Cc4cccnc43)N(C)C5=O)c2)CC1
2. Cc1ccc2c(c1)C(C)Cc1c(ncnc1-n1cnc3cc(C)ccc31)N2C (centres undefined)
3. CONC1=Nc2cc(NC(N)=NCc3ccccc3)c(N(C)C3CCCCC3)cc2OC1
4. COc1cc(/C=C2/C=C(c3ccc(C(C)(C)C)cc3)N(CCc3ccc(S(N)(=O)=O)cc3)C2=O)cc(OC)c1OC
5. O=C(CCCCCCCCC(=O)N/N=C\c1ccccc1O)N/N=C\c1ccccc1O
6. COCCn1cc(-c2nc(-c3cn(CCOC)c4ncccc34)cs2)c2ccccc21
7. COc1ccc(-c2nc(Cl)c3c(C)nn(-c4ccc(F)cc4)c3n2)cc1

Outgoing:
1. 33.5
2. 16.8
3. 75.9
4. 59
5. 16.7
6. 79.4
7. 111

---

System: SK-OV-3 ovarian
assayProtocol: NCI-60 one-dose screen, 48 h
conditionContext: 10 µM unless noted
About 83,000 compounds went through this panel and 20% of them were active in at least one assay; those are over-represented in the sample as a whole. Calls of active or inactive are those of the source. Rule for the calls: active = growth percent below 10; inactive = the rest.
Please state which outcome applies, choosing from label 1 for active, label 0 for inactive

Incoming: Hi team, can someone confirm the assay call for CC[C@]12CN3CCc4c([nH]c5ccccc45)[C@@](C(=O)OC)(c4cc5c(cc4OC)N(C)[C@H]4[C@@](O)(C(=O)OC)[C@H](OC(C)=O)[C@]6(CC)C=CCN7CC[C@]54[C@@H]76)CC(C3)[C@H]1O2 (stereo partly drawn) ?
Outgoing: label 0

Incoming: Hi team, can someone confirm the assay call for COc1ccc(-c2cc(-c3cccc(Cl)c3)c(C#N)c(=O)[nH]2)c(OC)c1 ?
Outgoing: label 0

Incoming: Hi team, can someone confirm the assay call for O=C1/C(=C/c2cn(-c3ccccc3)nc2-c2ccccc2)SC(=S)N1c1ccc(Cl)cc1 ?
Outgoing: label 0

Incoming: Hi team, can someone confirm the assay call for CC1=CC=C(NC(=O)/C=C/c2ccccc2)CC1Nc1nccc(-c2cccnc2)n1 (stereo not drawn) ?
Outgoing: label 0

Incoming: Hi team, can someone confirm the assay call for COCCn1cc(-c2nc(-c3cn(CCOC)c4ncccc34)cs2)c2ccccc21 ?
Outgoing: label 0

Incoming: Hi team, can someone confirm the assay call for CCN1CCN(CC(=O)Nc2nc3ccc(NCc4ccc(C)cc4)cc3s2)CC1 ?
Outgoing: label 0

---
Incoming: Hi team, can someone confirm the assay call for C/C=C(/C)C(=O)O[C@@H]1CC(C)(C)CC2C34OC(=O)[C@@]21CC[C@@]3(C)[C@]1(C)CCC2C(C)(C)C(=O)CC[C@]2(C)C1C[C@@H]4Cl (stereo partly drawn) ?
Outgoing: label 0

Incoming: Hi team, can someone confirm the assay call for COc1ccc2c(c1)c(-c1nc(-c3c[nH]c4c(Cl)nccc34)cs1)cn2C ?
Outgoing: label 0

Incoming: Hi team, can someone confirm the assay call for CCOC(=O)c1cc2c(n1Cc1cc(OC)cc(OC)c1Br)-c1nc(NC(C)=O)sc1CCC2 ?
Outgoing: label 0

Incoming: Hi team, can someone confirm the assay call for CCN(CC)CCCN1C(=O)c2c(c(C)c3c(oc4cc(OC)ccc43)c2C)C1=O ?
Outgoing: label 0

Incoming: Hi team, can someone confirm the assay call for COc1cc2ncnc(Nc3ccc(F)c(Cl)c3)c2cc1OCC(=O)N1CCCCC1 ?
Outgoing: label 0

Incoming: Hi team, can someone confirm the assay call for O=C(Cc1ccc(F)cc1)c1ccccc1 ?
Outgoing: label 0

Incoming: Hi team, can someone confirm the assay call for COc1ccc(/C(C)=C(\c2ccc(OCCN3CCCCCC3)cc2)c2ccc(OC(=O)C3CCCCC3)cc2)cc1 ?
Outgoing: label 1

Incoming: Hi team, can someone confirm the assay call for CC(=O)N1N=C(c2ccc(F)cc2)CC1c1sc(N(C)Cc2ccccc2)nc1Cl (stereo not drawn) ?
Outgoing: label 0

Incoming: Hi team, can someone confirm the assay call for N#C/C(=N\Nc1ccc(Cl)cc1)C(=O)Nc1cc(-c2ccccc2)nn1-c1ccccc1 ?
Outgoing: label 0

Incoming: Hi team, can someone confirm the assay call for CN1CCCc2cc(/C=C3\SC(=S)N(C(Cc4ccc(O)cc4)C(=O)O)C3=O)ccc21 (stereo not drawn) ?
Outgoing: label 0

Incoming: Hi team, can someone confirm the assay call for Cn1cc(-c2csc(-c3cn(CCOC(N)=O)c4ccccc34)n2)c2cccnc21 ?
Outgoing: label 0

Incoming: Hi team, can someone confirm the assay call for O=c1ccc2nc(-c3ccccn3)nn(-c3ccccc3)c-2c1 ?
Outgoing: label 0

---

Test system: HOP-62 NSCLC
assayProtocol: NCI-60 one-dose screen, 48 h (100 = growth as untreated, 0 = no growth, -100 = all killed)
conditionContext: 10 µM unless noted
About 83,000 compounds went through this panel and 20% of them were active in at least one assay; those are over-represented in the sample as a whole.
quantityMeasured: growth (%)
Numbers only, in %.

Incoming: Input COc1c(O)c(O)cc2c3c(oc12)CC(c1ccc2c(c1)OCO2)CC3=O (stereo not given) , output reported growth.
Outgoing: 71.4

Incoming: Input Cc1ccc(C(=O)c2ccc(CC(=O)N=Nc3c(O)[nH]c4ccc(OC(F)(F)F)cc34)n2C)cc1 , output reported growth.
Outgoing: 93.3

Incoming: Input COc1cc(CO)cc2cc3ccccc3nc12 , output reported growth.
Outgoing: 95.7

Incoming: Input CCOC(=O)C1=C(C)NC(=O)NC1c1c(Cl)n(-c2ccccc2)c2ccccc12 (stereo not given) , output reported growth.
Outgoing: 86.7

Here's the next entry for you.
Incoming: Input Cn1cc(-c2csc(-c3cn(CCOC(N)=O)c4ccccc34)n2)c2cccnc21 , output reported growth.
Outgoing: 74.5

---

System: TK-10 renal
assayProtocol: NCI-60 one-dose screen, 48 h (100 = growth as untreated, 0 = no growth, -100 = all killed)
conditionContext: 10 µM unless noted
This is part of a sample that, as a whole, favours compounds with a hit. Of some 83,000 tested, about 20% had one in any assay.
Binary call on growth with cut-off 30%: strictly below means T, and equality or higher means F.

Reference set (2 entries):
Incoming: For this molecule, is growth lower than 30%? Cc1ccc(S(=O)(=O)OC[C@@]2(C)CC[C@]3(C)CC[C@]4(C)C(=C3C2)C=C[C@@H]2[C@@]3(C)CCCNC(C)(C)[C@@H]3CC[C@]24C)cc1
Outgoing: F

Incoming: For this molecule, is growth lower than 30%? OCCN1CCN(CC/C=C2\c3ccccc3Sc3ccc(Cl)cc32)CC1
Outgoing: F

---
Incoming: For this molecule, is growth lower than 30%? Nc1n[nH]c2cccc(C#Cc3cccc(NC(=O)c4ccc(N5CCOCC5)c(C(F)(F)F)c4)c3)c12
Outgoing: T

Incoming: For this molecule, is growth lower than 30%? Nc1ccc(-c2nc3ccc4[nH]ncc4c3c3c2CCCC3)cc1F
Outgoing: T

Incoming: For this molecule, is growth lower than 30%? CCCCC#Cc1c(/C=C(\CCCC)SCC)n(C)c(=O)[nH]c1=O
Outgoing: F

Incoming: For this molecule, is growth lower than 30%? Cc1ccc(-c2nc3nc(-c4ccccc4)nc(N4CCCNCC4)c3o2)cc1
Outgoing: T

Incoming: For this molecule, is growth lower than 30%? Nc1[nH]nc(Nc2ccccc2)c1-c1nc2ccccc2s1
Outgoing: T

Incoming: For this molecule, is growth lower than 30%? O=C(CN1C(=O)S/C(=C\C(Cl)=C\c2ccccc2)C1=O)NC1C=CS(=O)(=O)C1 (centres undefined)
Outgoing: T

Incoming: For this molecule, is growth lower than 30%? COC(=O)c1nc(-c2ccc(C)cc2)oc1Sc1ccc(C)cc1
Outgoing: F

Incoming: For this molecule, is growth lower than 30%? COc1ccc(C(=O)N/N=C/c2ccc(O)cc2O)cc1Nc1ccnc(C(F)(F)F)c1
Outgoing: F

Incoming: For this molecule, is growth lower than 30%? COc1ccc(-c2cc(-c3cc(OC)c(OC)c(OC)c3)c(C#N)c(=O)n2CCCCC(=O)O)cc1
Outgoing: F

Incoming: For this molecule, is growth lower than 30%? CCCCCCCC/C=C\CCCCCCCCOc1ccccc1CC(=O)NCC[N+]1(C)CCOCC1
Outgoing: T

Incoming: For this molecule, is growth lower than 30%? O=C1/C(=C/c2ccc(-c3cccc(C(F)(F)F)c3)o2)SC(=S)N1CCc1ccc(O)cc1
Outgoing: F

Incoming: For this molecule, is growth lower than 30%? COc1cc2c(cc1OCCCOC1=C=C=C(c3ccc4c(c3)c3cc(-c5ccc(OCCCOc6cc7c(cc6OC)C(=O)N6CCC[C@H]6C=N7)cc5)ccc3n4S(=O)(=O)c3ccc(C)cc3)C=C1)N=C[C@@H]1CCCN1C2=O
Outgoing: F

Incoming: For this molecule, is growth lower than 30%? C=C(c1ccc(C(=O)O)cc1)c1cc2c(cc1C)C(C)(C)CCC2(C)C
Outgoing: F

Incoming: For this molecule, is growth lower than 30%? OB(O)c1ccsc1-c1nc2ccc3[nH]ncc3c2c2c1CCCC2
Outgoing: F

Incoming: For this molecule, is growth lower than 30%? Clc1nccc2c(-c3csc(-c4c[nH]c5ccc(Br)cc45)n3)c[nH]c12
Outgoing: T

Incoming: For this molecule, is growth lower than 30%? C=C(CN1CC=CCC1)[C@@H]1CC[C@]2(COC(C)=O)CC[C@]3(C)[C@H](CC[C@@H]4[C@@]5(C)CC[C@H](O)C(C)(C)[C@@H]5CC[C@]43C)[C@@H]12
Outgoing: F

Incoming: For this molecule, is growth lower than 30%? COc1ccc(-c2nc(Cl)c3c(C)nn(-c4ccc(F)cc4)c3n2)cc1
Outgoing: F
